# ASSAY_REMARKS: yeast display, Sf9 membrane polyspecificity reagent, FACS + sequencing; frameworks hold sequencing errors
MEASURED_PROPERTY: polyreactivity (PSR sort gate)

Please review the following examples before continuing.
stdin: Param item = QVQLEESGGGLVQAGGSLRLSCAASGSTFWFNAMGWYRQAPGKERELVAVITWSGDGTYYADSVKGRFTISRDNANYTVYLQRNSLKPEDTAVYYCAKGFERYPWYDYWGQGTQVTVSS ; retrieve measured polyreactivity (PSR sort gate).
stdout: low polyreactivity

stdin: Record request: polyreactivity (PSR sort gate) value, item QVQIVESGARLVQAGGSLRLSCAASGRTFYAYAMGWYTQAPGKDREYFASIRLRGGSTYYADSVKGRFTISRDNAKNTVYLQMHSLKPEDTAVYYGNAFYGGSSSYWYYSWGQGTQVTVSS
stdout: high polyreactivity

stdin: Entry QVQLVESGAGLVQAGGSLRLSCAASGYIFRQYAMGRYRQAPGTEREFVAAISQTGGSTYYADSVKRRFTLSRDNAKNTVYFQMNSLKPVDTAVYYCAARYRGQRYRKLDYWGQGTQVTVSS has what polyreactivity (PSR sort gate)?
stdout: high polyreactivity

stdin: Would you mind telling me what polyreactivity (PSR sort gate) value was observed for QVQLVESGGGLVQAGGSIRLSCAASGRIFNHNSMGWYRQAPGKERELVAAITKSGGSTYYADSVKGRFTISRDNAKNTVYFQINSLITEDTAVYYCATRLWKIPGAMYYWGQGTQVTVSS ?
stdout: high polyreactivity

stdin: Please look up its polyreactivity (PSR sort gate): QVQLVESGGGLVQAGGSLRLSCAASGSIFVYYAMGWYRQAPGKERELVATINYNDGSTYYADSVKGRFTISRDNAKNTVYLQMNSLKPEDTAVYYCAADIVWSPESHPWYYVHYYYWGQGTQVTVSS
stdout: low polyreactivity

stdin: Recorded polyreactivity (PSR sort gate) for QVQLVESGGGLVQAGGSLRLSCAASGRTFYRYAMGWYRQAPGKERELFAAISGSGTSTSYADSVKGRFTISRDNAKNTVYLQLNSLKPDDTAVYYCAATYYVYYYSRYYYWGQGTQVTVSS , please?
stdout: high polyreactivity

New cases:
stdin: Need polyreactivity (PSR sort gate) of QVQLVESGGGLVQAGGSLRLSCAASGRTFYHNAMGWYRQAPGKERELVASNRWSGGSTYADSVNGRFTISRDNAKNTVYLQMNSLKPEDTAVYYCARRYYRTGYWEPFIALNGYWGQGTKVTVSS , thanks.
stdout: high polyreactivity

stdin: What measured polyreactivity (PSR sort gate) goes with QVQLVESGGGLGQAGGSLRLSCAASGRTFYIYAMGWYRQAPGKERELVAANTWSTGGTYYADSVKGRFTISRDNAKNTVYLQMNSLKPEDTAVYYCAAGYDYKSTRHYYWGQGTQVTVSS ?
stdout: high polyreactivity

stdin: Fill blank: measured polyreactivity (PSR sort gate) of the sequence QVQLVESGGGLVQAGGSLRLSCAASGRYFGYNAMGWYRQAPGKERELVAAITGSGGSTYYADSVKGRFTISLDNAKHTVYLQIISLKPEDTAVYYCAADRFYHSAEYDYWGQGTQVTVSS is ____.
stdout: low polyreactivity

---

# ASSAY_REMARKS: yeast display, Sf9 membrane polyspecificity reagent, FACS + sequencing; frameworks hold sequencing errors
MEASURED_PROPERTY: polyreactivity (PSR sort gate)

stdin: polyreactivity (PSR sort gate) lookup needed for QVQLVESGGGLFQAGGSLRLSCAASGRIFGYNAMAGYRQAPGKERELVAVITYSGGSTYYADSVKGRFTISRDNAKNTVYLQMKSLKPEDTAVYYCIARPIDRYSGSGKQWPDYNYWGQGTQFTVSS , thanks.
stdout: low polyreactivity

stdin: Need polyreactivity (PSR sort gate), item QVQLVESGGGLVQAGGSLRISCASSGRIFKINAMGWYRQAPGKERELVATITRDGRTYYADSVKGRFTISRDNAKKTVYLQMNSLKPDDTAVYYCNVRRAFSGWRGYDYWGQGTQVTVSS
stdout: high polyreactivity

stdin: I would be grateful if you could share the reported polyreactivity (PSR sort gate) for QVQLVESGGGLVQAGGSLRLSCAASGYTFYYNTMGWYRQAPGKERELVARINSAGRTNYADSVKGRFTISRDNAKNTVYLQMNSLKPKDTAVYYCAADGPANPDELKVNDFDYWGQGTQVTVSS .
stdout: high polyreactivity

stdin: Please look up its polyreactivity (PSR sort gate): QVQLVESGGGLVQAGGSLRLSCAASGRIFIRNAMGWYRPAPGKERELVAAITQSGGSTYYADSVKGRFTISRDNAKNTVYLQMNSLKPEDTAVYYCAADGDNPYLHEEDYWGQGTQVTVSS
stdout: high polyreactivity

stdin: GET /values?readout=polyreactivity (PSR sort gate)&item= QVQLVESGGGLVQAGGSLRLSCAASGRTIVAYAMGWYRQAPGKERELVAAISWSTGSTYYADSVKGRFTISRDNAKNTVYLQMNSLKPEDTAVYYCAGLVWAPRDYWGQGTQVTVSS
stdout: low polyreactivity

Others:
stdin: polyreactivity (PSR sort gate) for QVQLVESGGGLGQAGGSLRLSCAASGRIFIDYAMGWYRQAPGKERELVAAITYSTGGTYYGDSVKGRFTISRDNAKNTVYLQMNSLKPEDTAVYYCNATYVWPGRRRDGYWGQGTQVTVSS ?
stdout: low polyreactivity

The values you see were collected from the nanobody polyreactivity screen of Harvey et al. (2022).
